Please respond with reported pIC50 for every item in the list.
Tested on: HT-29
Test: Antiproliferative MTT assay, HT-29 colon cancer cells
Type: cell-based, human
Settings: MTT assay, 48 h, mean ± SD; read-out: IC50 HT-29
In textbook form, pIC50 equals minus log to base ten of the concentration in mol/L.

Item under review: O=C(CC[Se]Cc1ccc2c(c1)OCO2)[c-]1cccc1.[Fe+2].c1cc[cH-]c1 . Reported pIC50?
4.67

What do we get for N#C[Se]Cc1ccc2c(c1)OCO2 ?
4.92

What do we get for C(=C\c1ccccc1)/C[Se][Se]C/C=C/c1ccccc1 [Compound 1b, 1,2-Dicinnamyldiselenide] ?
4.44

What do we get for c1cc2c(cc1C[Se][Se]Cc1ccc3c(c1)OCO3)OCO2 ?
5.00

---

System: HT-29
Assay: Antiproliferative MTT assay, HT-29 colon cancer cells
Assay type: cell-based, human
Settings: read-out: IC50 HT-29; MTT assay, 48 h, mean ± SD
Result Type: pIC50
In textbook form, pIC50 equals minus log to base ten of the concentration in mol/L.

Item under review: N#C[Se]C/C=C/c1ccccc1 [Compound 1a] . Reported pIC50?
4.21

---

Test system: HTB-54
Assay: Antiproliferative MTT assay, HTB-54 lung cancer cells
Type: cell-based, human
Conditions: read-out: IC50 HTB-54; MTT assay, 48 h, mean ± SD
Result Type: pIC50
In textbook form, pIC50 equals minus log to base ten of the concentration in mol/L.

Item under review: N#C[Se]C/C=C/c1ccccc1 [Compound 1a] . Reported pIC50?
4.23

---

Tested on: Leishmania major promastigotes
Experiment: Parasite viability MTT assay, L. major promastigotes
Assay type: cell-based
Settings: read-out: IC50 Leishmania major; promastigotes, MTT assay, 48 h, mean ± SD
Result Type: pIC50
In textbook form, pIC50 equals minus log to base ten of the concentration in mol/L.

Item under review: N#C[Se]C/C=C/c1ccccc1 [Compound 1a] . Reported pIC50?
5.34
